Reported pEC50 values for a set of molecules
- target under test: Glucocorticoid receptor (Homo sapiens)
- Sequence (P04150 whole entry): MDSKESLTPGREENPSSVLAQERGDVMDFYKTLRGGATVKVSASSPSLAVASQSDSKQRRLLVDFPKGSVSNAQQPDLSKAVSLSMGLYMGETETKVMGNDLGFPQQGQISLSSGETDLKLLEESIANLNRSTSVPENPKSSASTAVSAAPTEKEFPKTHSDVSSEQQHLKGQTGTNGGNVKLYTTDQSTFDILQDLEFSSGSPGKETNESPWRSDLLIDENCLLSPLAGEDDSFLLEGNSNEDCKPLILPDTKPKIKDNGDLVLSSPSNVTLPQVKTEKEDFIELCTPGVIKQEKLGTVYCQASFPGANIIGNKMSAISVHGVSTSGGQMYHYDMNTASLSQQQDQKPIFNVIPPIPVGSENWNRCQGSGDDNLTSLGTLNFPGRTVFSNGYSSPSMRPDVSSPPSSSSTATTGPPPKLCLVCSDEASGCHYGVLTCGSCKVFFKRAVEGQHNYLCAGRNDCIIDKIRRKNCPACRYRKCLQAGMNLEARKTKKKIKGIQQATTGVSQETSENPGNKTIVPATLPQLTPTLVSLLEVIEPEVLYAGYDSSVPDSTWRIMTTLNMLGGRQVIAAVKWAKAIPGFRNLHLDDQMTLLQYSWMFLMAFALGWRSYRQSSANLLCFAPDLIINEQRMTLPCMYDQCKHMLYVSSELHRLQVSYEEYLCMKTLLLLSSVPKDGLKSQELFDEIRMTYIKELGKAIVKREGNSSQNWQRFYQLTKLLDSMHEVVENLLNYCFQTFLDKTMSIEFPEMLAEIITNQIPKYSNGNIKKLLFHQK
- test protocol: Binding affinity to glucocorticoid receptor (unknown origin) by fluorescence polarization competitive binding assay
pEC50: −log10 of the molar value.

- molecule: "CC[C@H]1OC(=O)[C@H](C)[C@@H](O[C@H]2C[C@@](C)(OC)[C@@H](O)[C@H](C)O2)[C@H](C)[C@@H](O[C@@H]2O[C@H](C)C[C@H](N(C)C)[C@H]2O)[C@](C)(O)C[C@@H](C)CN(CCCNC(=O)[C@@]2(O)C(C)C[C@H]3[C@@H]4CCC5=CC(=O)C=C[C@]5(C)[C@@]4(Cl)[C@@H](O)C[C@@]32C)[C@H](C)[C@@H](O)[C@]1(C)O (single isomer, unassigned)"
  value measured: "< 5.00"
- molecule: "CC[C@H]1OC(=O)[C@H](C)[C@@H](O[C@H]2C[C@@](C)(OC)[C@@H](O)[C@H](C)O2)[C@H](C)[C@@H](O[C@@H]2O[C@H](C)C[C@H](N(C)C)[C@H]2O)[C@](C)(O)C[C@@H](C)CN(CCCNC(=O)[C@H]2CC[C@H]3[C@@H]4CCC5=CC(=O)CC[C@]5(C)[C@H]4[C@@H](O)C[C@]23C)[C@H](C)[C@@H](O)[C@]1(C)O"
  value measured: "< 5.00"

Memo: CC[C@H]1OC(=O)[C@H](C)[C@@H](O[C@H]2C[C@@](C)(OC)[C@@H](O)[C@H](C)O2)[C@H](C)[C@@H](O[C@@H]2O[C@H](C)C[C@H](N(C)C)[C@H]2O)[C@](C)(O)C[C@@H](C)CN(CCCNC(=O)[C@@]2(O)CC[C@H]3[C@@H]4CCC5=CC(=O)CC[C@]5(C)[C@H]4[C@@H](O)C[C@@]32C)[C@H](C)[C@@H](O)[C@]1(C)O , reported pEC50: < 5.00
